- measurementNotes: self-splicing fitness, log relative to wild type (ln ratio); higher = more splicing; Tetrahymena group I intron in knt gene, E. coli kanamycin selection, DiMSum; sequences stand for … in CUCUCU…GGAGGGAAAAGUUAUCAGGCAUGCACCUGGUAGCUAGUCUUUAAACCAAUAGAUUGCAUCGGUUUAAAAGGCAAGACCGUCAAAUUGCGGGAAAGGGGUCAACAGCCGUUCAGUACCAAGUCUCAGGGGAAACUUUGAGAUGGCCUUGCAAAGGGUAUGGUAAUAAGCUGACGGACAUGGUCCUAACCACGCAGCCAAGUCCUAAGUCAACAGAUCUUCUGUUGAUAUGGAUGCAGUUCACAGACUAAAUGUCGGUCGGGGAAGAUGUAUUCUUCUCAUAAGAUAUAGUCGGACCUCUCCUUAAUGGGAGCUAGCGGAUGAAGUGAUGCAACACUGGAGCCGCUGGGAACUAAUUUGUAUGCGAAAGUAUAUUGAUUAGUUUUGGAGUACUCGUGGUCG;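 also: selection with 25 µg/mL kanamycin versus none on LB agar overnight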
- setupConditions: 37 °C
self-splicing fitness (ln) values, listed per item
Please give only the number in your answer, with no unit.

ACGCAGCAAUAUUACGAGAU ... -2.68
ACUGAGCAAUAUUACGGUGU ... -1.41
AUAAAGCAAUAUUACGUUAC ... -0.574

Input `UUAAAGCAAUAUUACGCUAA` , output reported self-splicing fitness (ln). -0.111

Input `GACAAGCAAUAUUACGAAUA` , output reported self-splicing fitness (ln). -1.17

Input `CUAAAGCAAUAUUACGUCUA` , output reported self-splicing fitness (ln). -2.2
